Target: SpnFADS (Streptococcus pneumoniae, UniProt A0A0H2UPY5)
Construct: gene SP_1110; full-length bifunctional enzyme from pET-15b in E. coli BL21 Star (DE3), His6-tag removed; riboflavin kinase activity of the C-terminal module; functional form monomer
Sequence (A0A0H2UPY5 1-305): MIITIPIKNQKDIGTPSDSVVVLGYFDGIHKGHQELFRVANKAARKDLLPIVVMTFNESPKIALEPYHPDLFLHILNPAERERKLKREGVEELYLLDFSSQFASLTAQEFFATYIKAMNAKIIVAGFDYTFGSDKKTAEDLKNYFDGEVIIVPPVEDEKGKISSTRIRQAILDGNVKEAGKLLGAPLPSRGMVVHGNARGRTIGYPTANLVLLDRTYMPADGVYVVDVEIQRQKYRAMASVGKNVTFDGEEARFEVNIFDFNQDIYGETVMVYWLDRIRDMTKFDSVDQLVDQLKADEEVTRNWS
Assay: biochemical
Parameters: Isothermal titration calorimetry, ligand titrated into free or ligand-pre-bound SpnFADS, 20 °C, PIPES pH 7.0
Details: enzyme pre-bound to ADP; 0.8 mM MgCl2

compound	Kd
Cc1cc2nc3c(=O)[nH]c(=O)nc-3n(C[C@H](O)[C@H](O)[C@H](O)COP(=O)(O)O)c2cc1C [FMN, flavin mononucleotide]	2.3 µM
Cc1cc2nc3c(=O)[nH]c(=O)nc-3n(C[C@H](O)[C@H](O)[C@H](O)CO)c2cc1C	1.6 µM

====

Reported values of Kd for individual entries
Target: SpnFADS (Streptococcus pneumoniae, UniProt A0A0H2UPY5)
Construct: gene SP_1110; full-length bifunctional enzyme from pET-15b in E. coli BL21 Star (DE3), His6-tag removed; riboflavin kinase activity of the C-terminal module; functional form monomer
Sequence (A0A0H2UPY5 1-305): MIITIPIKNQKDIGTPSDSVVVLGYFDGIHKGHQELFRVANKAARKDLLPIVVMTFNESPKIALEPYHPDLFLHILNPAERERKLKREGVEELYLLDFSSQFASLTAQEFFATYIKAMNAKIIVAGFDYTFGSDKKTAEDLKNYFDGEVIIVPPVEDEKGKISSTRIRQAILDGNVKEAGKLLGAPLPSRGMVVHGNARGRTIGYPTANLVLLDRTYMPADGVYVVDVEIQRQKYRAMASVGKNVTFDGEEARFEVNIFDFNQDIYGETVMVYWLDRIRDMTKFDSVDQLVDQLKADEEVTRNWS
Assay: stopped-flow flavin fluorescence, Kd from koff and kon
Type: binding

compound	Kd, nM
Cc1cc2nc3c(=O)[nH]c(=O)nc-3n(C[C@H](O)[C@H](O)[C@H](O)CO)c2cc1C	570
Cc1cc2nc3c(=O)[nH]c(=O)nc-3n(C[C@H](O)[C@H](O)[C@H](O)COP(=O)(O)O)c2cc1C [FMN, flavin mononucleotide]	760

====

Target: SpnFADS (Streptococcus pneumoniae)
Construct: gene SP_1110; full-length bifunctional enzyme from pET-15b in E. coli BL21 Star (DE3), His6-tag removed; riboflavin kinase activity of the C-terminal module; functional form monomer
Assay: biochemical
Design: Isothermal titration calorimetry, ligand titrated into free or ligand-pre-bound SpnFADS, 20 °C, PIPES pH 7.0
Conditions: enzyme pre-bound to ATP; no MgCl2; read-out: Kd (μM), 0.0 mM MgCl2

inputSmiles	Kd [µM]
Cc1cc2nc3c(=O)[nH]c(=O)nc-3n(C[C@H](O)[C@H](O)[C@H](O)CO)c2cc1C	2.5
